System: Prevotella bivia
assay remarks: Antibacterial activity against Prevotella bivia by CLSI M11-A6 agar dilution method
Assay type: functional
metric name: MIC50

*Q* Lookup: MIC50 / Prevotella bivia / `CCCCCCCCCC(=O)N[C@@H](Cc1c[nH]c2ccccc12)C(=O)N[C@H](CC(N)=O)C(=O)N[C@@H](CC(=O)O)C(=O)N[C@@H]1C(=O)NCC(=O)N[C@@H](CCCN)C(=O)N[C@@H](CC(=O)O)C(=O)N[C@H](C)C(=O)N[C@@H](CC(=O)O)C(=O)NCC(=O)N[C@H](CO)C(=O)N[C@@H]([C@H](C)CC(=O)O)C(=O)N[C@@H](CC(=O)c2ccccc2N)C(=O)O[C@@H]1C`
*A* > 128 µg/mL

*Q* Then `CCC[C@@H]1C[C@@H](C(=O)N[C@@H]([C@H]2O[C@H](SC)[C@H](O)[C@@H](O)[C@H]2O)[C@H](C)Cl)N(C)C1` ?
*A* ≤ 0.12 µg/mL

More entries:
*Q* Short answer please: MIC50, Prevotella bivia, entry `CCCCCCCCCCNCCN[C@@]1(C)C[C@H](O[C@H]2[C@H](Oc3c4cc5cc3Oc3ccc(cc3Cl)[C@@H](O)[C@@H](NC(=O)[C@@H](CC(C)C)NC)C(=O)N[C@@H](CC(N)=O)C(=O)N[C@H]5C(=O)N[C@H]3C(=O)N[C@H](C(=O)N[C@H](C(=O)O)c5cc(O)c(CNCP(=O)(O)O)c(O)c5-c5cc3ccc5O)[C@H](O)c3ccc(c(Cl)c3)O4)O[C@H](CO)[C@@H](O)[C@@H]2O)O[C@@H](C)[C@H]1O`
*A* 8 µg/mL
